Parameter pIC50: see the listing below.
molecular target: human TLR9 (Homo sapiens, UniProt Q9NR96); experiment: TLR9 inhibition reporter assay (HEK-Blue cells, SEAP reporter, ODN2006 stimulation); settings: HEK-Blue cells overexpressing human TLR9, SEAP reporter, ODN2006 5 nM
Sequence (Q9NR96 26-1032): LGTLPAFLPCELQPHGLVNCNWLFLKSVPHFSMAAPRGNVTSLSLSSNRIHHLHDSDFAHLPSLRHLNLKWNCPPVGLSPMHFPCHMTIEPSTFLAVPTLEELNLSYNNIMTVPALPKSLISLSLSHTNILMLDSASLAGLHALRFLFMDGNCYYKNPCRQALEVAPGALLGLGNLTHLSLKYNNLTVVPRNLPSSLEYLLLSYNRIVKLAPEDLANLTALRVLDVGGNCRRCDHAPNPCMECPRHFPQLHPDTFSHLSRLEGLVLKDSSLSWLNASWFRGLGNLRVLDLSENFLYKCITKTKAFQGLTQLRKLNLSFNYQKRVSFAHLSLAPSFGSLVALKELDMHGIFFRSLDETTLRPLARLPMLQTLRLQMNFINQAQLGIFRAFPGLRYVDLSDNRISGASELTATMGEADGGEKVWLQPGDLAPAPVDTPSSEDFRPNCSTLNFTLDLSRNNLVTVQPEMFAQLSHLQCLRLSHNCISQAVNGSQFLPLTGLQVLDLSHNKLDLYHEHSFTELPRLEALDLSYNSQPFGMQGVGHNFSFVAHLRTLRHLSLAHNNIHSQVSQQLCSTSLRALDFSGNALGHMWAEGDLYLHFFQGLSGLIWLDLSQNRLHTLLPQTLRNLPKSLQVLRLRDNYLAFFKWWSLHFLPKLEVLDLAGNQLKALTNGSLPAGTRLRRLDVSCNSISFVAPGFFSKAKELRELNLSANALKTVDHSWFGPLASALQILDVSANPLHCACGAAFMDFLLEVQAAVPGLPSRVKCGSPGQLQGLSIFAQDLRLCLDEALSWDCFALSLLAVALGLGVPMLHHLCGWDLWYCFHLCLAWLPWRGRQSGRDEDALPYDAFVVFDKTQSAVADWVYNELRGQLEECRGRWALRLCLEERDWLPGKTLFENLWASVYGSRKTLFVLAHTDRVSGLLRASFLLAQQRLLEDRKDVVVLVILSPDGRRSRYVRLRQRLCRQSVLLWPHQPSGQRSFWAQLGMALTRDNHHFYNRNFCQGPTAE
pIC50: −log10 of the molar value.

Examples from the recorded data:
1) Cc1cc(-c2[nH]c3ccc(C4CCN(CC(C)(C)O)CC4)cc3c2C(C)C)cc2cnn(C)c12 [Example 762]	4.30 to 6.00
2) CCc1c(-c2ccnc3[nH]cc(CC)c23)[nH]c2ccc(C3CCNCC3)cc12 [Example 220]	4.30 to 6.00

Lookup: Identify measured pIC50 corresponding to CNC(=O)CN1CCC(c2ccc3[nH]c(-c4cc(C(F)(F)F)c5nc(C)cn5c4)c(C(C)C)c3c2)CC1 [Example 377]
Found: 4.30 to 6.00

Lookup: Identify measured pIC50 corresponding to Cc1cc(-c2[nH]c3ccc(C4CCN(C5CCOCC5)CC4)cc3c2C(C)C)nn2ncnc12 [Example 686]
Found: 4.30 to 6.00

Lookup: Identify measured pIC50 corresponding to CC(C)c1c(-c2c[nH]c3ncncc23)[nH]c2ccc(C3CCNCC3)cc12 [Example 13]
Found: 6.00 to 7.00

Lookup: Identify measured pIC50 corresponding to CC(C)c1c(-c2cc(Cl)c3ncccc3c2)[nH]c2ccc(C3CCN(CC(C)(C)O)CC3)cc12 [Example 767]
Found: 4.30 to 6.00

Lookup: Identify measured pIC50 corresponding to CC(C)c1c(-c2cnc3cnccn23)[nH]c2ccc(C3CCNCC3)cc12 [Example 194]
Found: 6.00 to 7.00

Lookup: Identify measured pIC50 corresponding to CC(C)c1c(-c2ccnc3c2CC(=O)N3)[nH]c2ccc(C3CCNCC3)cc12 [Example 69]
Found: 6.00 to 7.00

Lookup: Identify measured pIC50 corresponding to CNC(=O)CN1CCC(c2ccc3[nH]c(-c4cc(C(C)(C)O)c5nccn5c4)c(C(C)C)c3c2)CC1 [Example 342]
Found: 6.00 to 7.00

Lookup: Identify measured pIC50 corresponding to Cc1cnc2[nH]ncc2c1-c1[nH]c2ccc(C3CCNCC3)cc2c1C(C)C [Example 46]
Found: 4.30 to 6.00

Lookup: Identify measured pIC50 corresponding to CC(C)c1c(-c2ccnc3[nH]ccc23)[nH]c2ccc(C3CCN(C(=O)CN(C)C)CC3)cc12 [Example 564]
Found: 4.30 to 6.00

Lookup: Identify measured pIC50 corresponding to Cc1c(-c2ccnc3[nH]ccc23)[nH]c2ccc(C3CCNCC3)cc12 [Example 2]
Found: 4.30 to 6.00

Lookup: Identify measured pIC50 corresponding to Cc1cc(-c2[nH]c3ccc(C4CCN(CC(=O)N(C)C)CC4)cc3c2C(C)C)c(C)n2nnnc12 [Example 310]
Found: 4.30 to 6.00

Lookup: Identify measured pIC50 corresponding to CC(C)c1c(-c2ccc3cnnn3c2)[nH]c2ccc(C3CCN(C4CCOCC4)CC3)cc12 [Example 695]
Found: 6.00 to 7.00

Lookup: Identify measured pIC50 corresponding to CC(C)c1c(-c2ccc(C#N)c3ncccc23)[nH]c2ccc(C3CCN(CC(N)=O)CC3)cc12 [Example 369]
Found: 4.30 to 6.00

Lookup: Identify measured pIC50 corresponding to CNC(=O)CN1CCC(c2ccc3[nH]c(-c4cccn5ncnc45)c(C(C)C)c3c2)CC1 [Example 361]
Found: 4.30 to 6.00
